# test summary: growth suppression of PTEN-deleted HCT116, pilot screen, cell-based, HCT116 clonal line, CellTiter-Glo (AID 824)
# run conditions: 60 h, at 10 µM, stronger effect = lower value
Results filed as inconclusive are left out.
Criterion: viability strictly under 90%. Met: yes. Not met: no.

Problem: hey, is viability for Cc1ccccc1CSc1nnc(Cn2c(=O)sc3ccccc32)n1C lower than 90% or not?
Solution: no

Problem: Please state whether viability is below 90% for CC(C)c1ccccc1NC(=O)CCCC(=O)O
Solution: no

Problem: Take the compound CCCn1c(CNS(=O)(=O)c2ccc(C)cc2)nc2ccccc21 and say whether its viability is less than 90%.
Solution: yes

Problem: # strict comparison: is reported viability < 90%? input = Cc1ccc2c(c1)C(c1ccc(F)cc1)N(C(=O)C1CC1)CC(=O)N2 (stereo unspecified)
Solution: yes

Problem: Regarding Cc1ccc(NC(=O)C2C3C=CC4(CN(Cc5cccnc5)C(=O)C24)O3)cc1F (stereo unspecified) , kindly confirm whether its viability is beneath 90%.
Solution: no

Problem: Quick check: viability of COc1ccccc1OCCC(=O)OCC(=O)NC(=O)NC(C)(C)C under 90%?
Solution: yes

Problem: Dear colleague, could you confirm whether viability of COc1ccc(OC)c(N(CC(=O)NCCSc2ccccc2)S(C)(=O)=O)c1 falls below 90%? Thanks.
Solution: no

Problem: Does O=C1CC(c2nc3ccccc3[nH]2)CN1Cc1ccccc1 (stereo unspecified) have viability strictly under 90%?
Solution: no

Problem: Quick check: does CCN(CC)CCNC(=O)Cn1cnc2sc(C)c(S(=O)(=O)N3CCOCC3)c2c1=O have viability under 90%?
Solution: no

Problem: API: query returns whether the compound falls strictly under 90% in viability. Query: Cc1cc(F)ccc1S(=O)(=O)Nc1c(C)n(C)n(-c2ccccc2)c1=O
Solution: no

Problem: Here's an entry: OCCNc1nc(Nc2ccccc2)nc(Nc2ccccc2)n1 . Is its viability below 90%?
Solution: no

Problem: Determine if O=C1Cc2ccccc2C(=O)N1CCc1ccccc1 shows viability strictly lower than 90%.
Solution: no

Problem: Below 90% on viability? Entry Nc1ccc(O)c(-c2nc3ccccc3s2)c1
Solution: yes

Problem: Confirm or reject: viability of Cc1ccc(C)c(C(=O)CSc2n[nH]c(C)n2)c1 lies strictly below 90%
Solution: no

Problem: Would you kindly verify if viability of O=C(CN1CCN(c2ccccn2)CC1)N(c1ccccc1)c1ccc2ccccc2c1 is strictly less than 90%?
Solution: yes

Problem: Please determine if COc1ccc(C2N(c3cccc(Cl)c3)C(=O)C3CCCN32)cc1 (stereo unspecified) is below 90% in terms of viability.
Solution: no

Problem: Identify whether the compound COc1cc2[nH]c(=O)n(CCCC(=O)NCCc3ccccc3)c(=O)c2cc1OC records viability below 90%.
Solution: no

Problem: Is it true that viability reported for Cn1c(CNc2ccccc2O)nc2ccccc21 is less than 90%?
Solution: yes

Problem: Lab log: compare recorded viability with 90%; is it strictly lower for Cc1cc(C)cc(OCC(=O)Nc2cccc(-c3nc4ncccc4o3)c2)c1 ?
Solution: yes

Problem: Does this compound meet the criterion viability < 90%? Cn1c(=O)oc2cc(S(=O)(=O)N3CCC(C(=O)N4CC=C(c5ccccc5)CC4)CC3)ccc21
Solution: no

Problem: State whether 90% exceeds viability recorded for CCCCOc1ccccc1C1C(C(=O)OC)=C(C)N(C)C(C)=C1C(=O)OC .
Solution: yes

Problem: Is 90% strictly greater than the compound's reported viability? compound: N#CCn1c(C2CCCCC2)nc2ccccc2c1=O
Solution: yes

Problem: State whether 90% exceeds viability recorded for COc1ccccc1-n1c(SC)nc(O)cc1=O .
Solution: no

Problem: Does COc1ccc(NC(=O)c2nc3nc(C)cc(C(F)F)n3n2)cc1OC have viability strictly under 90%?
Solution: no

Problem: Given COc1ccccc1NC(=O)C1=C(C)NC(=O)NC1c1cccc(OC)c1OC (stereo unspecified) , is recorded viability strictly lower than 90%?
Solution: no

Problem: Could you please tell me whether viability recorded for CC1(C)CC(=O)C(C=Nc2ccccc2)=C(O)C1 is less than 90%?
Solution: no

Problem: Quick check: viability of Cc1cc(NS(=O)(=O)c2ccccc2)cc(Cl)c1O under 90%?
Solution: yes

Problem: Hello, I'm reviewing records and need to know if viability of COc1ccc(OC)c(NC(=O)c2cnc3n(c2=O)CCS3)c1 is below 90%. Could you check?
Solution: no

Problem: Does the reported viability of the following compound sit strictly below 90%? Cc1ccc(-c2c(C(=O)N3CCOCC3)oc(=O)c3ccccc23)cc1
Solution: no

Problem: Is 90% strictly greater than the compound's reported viability? compound: CN(C)c1oc(-c2ccccc2Cl)nc1S(=O)(=O)c1ccccc1
Solution: no

Problem: Strictly below 90%: is that where viability of Cc1csc(NC(=O)CSc2nnc(Cc3cccn3C)n2CCc2ccccc2)n1 sits?
Solution: yes

Problem: Threshold test, viability < 90%: COC(=O)c1coc(-c2ccc(C)cc2)c1C(=O)OC
Solution: no

Problem: Here's an entry: CCNc1nc(C)cc(COC)c1C#N . Is its viability below 90%?
Solution: no

Problem: Please indicate whether the reported viability of COc1ccc(C(=O)N(Cc2nc(-c3ccc(C)cc3)no2)C(C)C)cc1OC is strictly below 90%.
Solution: yes

Problem: # strict comparison: is reported viability < 90%? input = Cc1ccccc1-n1nc(-c2ccc(N)cc2)cc1N
Solution: no

Problem: Could you please tell me whether viability recorded for CCN(CC)C(=O)c1cc2c(=O)n3ccccc3nc2s1 is less than 90%?
Solution: no

Problem: Say whether its viability is strictly beneath 90%. Entry: COCCNC(=O)CS(=O)Cc1nc(-c2ccc(OC)cc2)oc1C (stereo unspecified)
Solution: no
